These data points were gathered from ChEMBL document CHEMBL3044830.

Exercise: state measured Activity for each of the compounds provided.
tested on: Staphylococcus aureus; experiment: Antibacterial activity against methicillin-resistant Staphylococcus aureus assessed as concentration required to obtain a zone of inhibition of 5 mm after 18 to 24 hr by disk diffusion method; assay type: functional

compound="CCCCCCCC(=O)N1CCN(c2c(F)cc3c(=O)c(C(=O)O)cn(C4CC4)c3c2OC)CC1C.O (centres undefined)" quantity_name=Activity result_value="7 µg/mL"

Provide Activity for all items below, preserving their order.
1. COc1c(N2CCN(C(C)=O)C(C)C2)c(F)cc2c(=O)c(C(=O)O)cn(C3CC3)c12.O (centres undefined)
2. COc1c(N2CCN(C(=O)c3ccccc3)C(C)C2)c(F)cc2c(=O)c(C(=O)O)cn(C3CC3)c12.O (centres undefined)
3. CO/N=C1\CN(c2nc3c(cc2F)c(=O)c(C(=O)O)cn3C2CC2)CC1CN.CS(=O)(=O)O (centres undefined) [GEMIFLOXACIN MESYLATE]

Reply:
["14 µg/mL", "9 µg/mL", "9 µg/mL"]

* * *

Exercise: state measured Activity for each of the compounds provided.
test system: Citrobacter; test: Antibacterial activity against Citrobacter assessed as concentration required to obtain a zone of inhibition of 10 mm after 18 to 24 hr by disk diffusion method; type: functional
One number for each entry, in µg/mL.

Provide Activity for all items below, preserving their order.
1. COc1c(N2CCN(C(=O)c3ccccc3)C(C)C2)c(F)cc2c(=O)c(C(=O)O)cn(C3CC3)c12.O (stereo unspecified)
2. CCCCCCCC(=O)N1CCN(c2c(F)cc3c(=O)c(C(=O)O)cn(C4CC4)c3c2OC)CC1C.O (stereo unspecified)

Reply:
1. 10
2. 10

Provide Activity for all items below, preserving their order.
1. CO/N=C1\CN(c2nc3c(cc2F)c(=O)c(C(=O)O)cn3C2CC2)CC1CN.CS(=O)(=O)O (stereo unspecified) [GEMIFLOXACIN MESYLATE]
2. COc1c(N2CCN(C(C)=O)C(C)C2)c(F)cc2c(=O)c(C(=O)O)cn(C3CC3)c12.O (stereo unspecified)
3. C[C@@H]1CN(c2c(F)c(N)c3c(=O)c(C(=O)O)cn(C4CC4)c3c2F)C[C@H](C)N1
4. COc1c(N2CCNC(C)C2)c(F)cc2c(=O)c(C(=O)O)cn(C3CC3)c12 (stereo unspecified)

Reply:
[9, 21, 9, 23]

* * *

system: T-cell; assay: Anti-inflammatory activity in Homo sapiens (human) T lymphocytes assessed as inhibition of PHA-induced [3H] thymidine uptake at 3.12 ug/ml incubated for 72 hr prior to [3H]thymidine addition measured after 18 hr by liquid scintillation method; type: functional
quantity-name: inhibition at 3.12 µg/mL (%)
Numbers only, in %.

compound="COc1c(N2CCNC(C)C2)c(F)cc2c(=O)c(C(=O)O)cn(C3CC3)c12 (centres undefined)" system=T-cell result_value=-71.1

Provide inhibition at 3.12 µg/mL for all items below, preserving their order.
1. CCCCCCCC(=O)N1CCN(c2c(F)cc3c(=O)c(C(=O)O)cn(C4CC4)c3c2OC)CC1C.O (centres undefined)
2. COc1c(N2CCN(C(=O)c3ccccc3)C(C)C2)c(F)cc2c(=O)c(C(=O)O)cn(C3CC3)c12.O (centres undefined)
3. COc1c(N2CCN(C(C)=O)C(C)C2)c(F)cc2c(=O)c(C(=O)O)cn(C3CC3)c12.O (centres undefined)

Reply:
1. -59.5
2. -59.5
3. -23.4
